Field: Vd. Provide a value for each of the compounds that follow.
- Test description: Volume of distribution in C57BL/6 mouse at 500 mg/kg, iv administered as Antitumor B
- Measurement context: in vivo
The number alone won't do; follow it with the unit.

O=C1CCC[C@@H]2[C@H]3CCCN4CCC[C@@H](CN12)[C@@H]34    9.1 L/kg
Oc1ccc2c(c1)OCC1c3cc4c(cc3OC21)OCO4 (centres undefined)    4.1 L/kg
COc1c2ccccc2nc2occc12    0.6 L/kg

// next item, Vd requested
INPUT: Provide one value: measured Vd of CC1=C2C(=O)O[C@@H](c3ccoc3)[C@]2(C)CCC1
OUTPUT: 2.9 L/kg

* * *

- Test description: in vivo
- Measurement context: C57BL/6, mouse, ip, 500 mg/kg
Field: AUC at 24 h. Provide a value for each of the compounds that follow.
One number for each entry, in ng·h/mL.

Known AUC at 24 h results, listed for orientation:
CC1=C2C(=O)O[C@@H](c3ccoc3)[C@]2(C)CCC1 [FRAXINELLONE]    2.7
COc1c2ccccc2nc2occc12 [DICTAMNINE]    1
O=C1CCC[C@@H]2[C@H]3CCCN4CCC[C@@H](CN12)[C@@H]34 [MATRINE]    1480

// next item, AUC at 24 h requested
INPUT: Provide one value: measured AUC at 24 h of Oc1ccc2c(c1)OCC1c3cc4c(cc3OC21)OCO4 (centres undefined)
OUTPUT: 5.6

* * *

- Test description: in vivo
- Measurement context: C57BL/6, mouse, po, 500 mg/kg
Quantity kind: AUC(0-inf) (ng·h/mL)
One number for each entry, in ng·h/mL.

INPUT: Provide one value: measured AUC(0-inf) of O=C1CCC[C@@H]2[C@H]3CCCN4CCC[C@@H](CN12)[C@@H]34
OUTPUT: 124

* * *

- Test description: Half life in C57BL/6 mouse at 500 mg/kg, po
- Measurement context: in vivo
Quantity kind: half-life (h)
Numbers only, in h.

INPUT: Provide one value: measured half-life of O=C1CCC[C@@H]2[C@H]3CCCN4CCC[C@@H](CN12)[C@@H]34
OUTPUT: 3.8

* * *

- Test description: Half life in C57BL/6 mouse at 500 mg/kg, iv administered as Antitumor B
- Measurement context: in vivo
Field: half-life. Provide a value for each of the compounds that follow.
One number for each entry, in h.

Known half-life results, listed for orientation:
CC1=C2C(=O)O[C@@H](c3ccoc3)[C@]2(C)CCC1    5.2
Oc1ccc2c(c1)OCC1c3cc4c(cc3OC21)OCO4 (stereo not drawn)    4.9

INPUT: Provide one value: measured half-life of O=C1CCC[C@@H]2[C@H]3CCCN4CCC[C@@H](CN12)[C@@H]34
OUTPUT: 7.5

* * *

- Test description: in vivo
- Measurement context: C57BL/6, mouse, po, 500 mg/kg
Quantity kind: Cmax (ng/mL)
One number for each entry, in ng/mL.

Oc1ccc2c(c1)OCC1c3cc4c(cc3OC21)OCO4 (configuration not stated)    0.5

INPUT: Provide one value: measured Cmax of O=C1CCC[C@@H]2[C@H]3CCCN4CCC[C@@H](CN12)[C@@H]34
OUTPUT: 53.8
